target: Spermidine synthase (Trypanosoma cruzi (strain CL Brener), UniProt Q4CXJ6); assay: Inhibition of Trypanosoma cruzi strain CL Brener N-terminal poly-His tagged spermidine synthase expressed in Escherichia coli BL21(DE3) using 50 uM putrescine as substrate in presence of 100 uM dcSAM incubated for 1 hr by NMR analysis based constant-time batch reaction assay
Sequence (Q4CXJ6 whole entry): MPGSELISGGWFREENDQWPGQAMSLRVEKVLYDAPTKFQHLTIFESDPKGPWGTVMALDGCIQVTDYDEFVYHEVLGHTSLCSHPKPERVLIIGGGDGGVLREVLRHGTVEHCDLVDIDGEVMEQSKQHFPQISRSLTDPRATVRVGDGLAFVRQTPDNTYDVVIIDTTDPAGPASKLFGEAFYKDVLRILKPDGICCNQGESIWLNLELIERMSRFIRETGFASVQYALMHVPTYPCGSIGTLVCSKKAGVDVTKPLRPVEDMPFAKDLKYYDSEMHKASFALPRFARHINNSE
endpoint: IC50 (µM)
Just the number in µM, nothing appended.

Exercise: Reported IC50 for C[C@H]1CC[C@H](N)CC1 : what is it?
Key: 0.093

Exercise: Another: NC1=Nc2ccccc2SC1
Key: 100

* * *

molecular target: Spermidine synthase (Sus scrofa, UniProt Q6QA75); assay: Inhibition of porcine spermidine synthase assessed as production of labeled 5'-methylthioadenosine using putrescine as substrate by enzymatic assay in presence of 10 uM decarboxylated AdoMet
Sequence (Q6QA75 whole entry): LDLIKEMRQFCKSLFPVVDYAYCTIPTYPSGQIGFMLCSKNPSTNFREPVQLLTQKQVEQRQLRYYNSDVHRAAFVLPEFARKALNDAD
endpoint: IC50 (nM)
Respond with the bare value in nM.

Exercise: Reported IC50 for C[C@H]1CC[C@H](N)CC1 : what is it?
Key: 1700

* * *

target: Spermidine synthase (Trypanosoma cruzi (strain CL Brener))
endpoint: IC50 (nM)
Report as a plain number; the unit nM is understood.

Exercise: Look up IC50 for this molecule: C[C@H]1CC[C@H](N)CC1
Key: 620
